Record form. Attribute: Ki. Fill in for each entry.
Target: Bromodomain testis-specific protein (Homo sapiens)
Assay: Inhibition of BI-BODIPY binding to BRDT bromodomain 1 (29 to 134 residues) (unknown origin) expressed in Escherichia coli BL21(DE3) by fluorescence anisotropy assay
One number for each entry, in nM.

INPUT: Report Ki for Cc1ccc(C2C3=C(COC3=O)Nc3c2c(=O)[nH]c(=O)n3CC(F)(F)F)cc1 (stereo not given)
OUTPUT: 850

Read the next record carefully.
INPUT: Note down Ki recorded for CCn1c2c(c(=O)[nH]c1=O)C(c1ccc(C)cc1)C1=C(CN(CCc3ccc(OC)cc3)C1=O)N2 (stereo not given)
OUTPUT: 200

* * *

Molecular target: Bromodomain testis-specific protein (Homo sapiens)
Test: Inhibition of BI-BODIPY binding to BRDT bromodomain 1 (29 to 134 residues) (unknown origin) expressed in Escherichia coli BL21(DE3) by fluorescence anisotropy assay
pKi: −log10 of the molar value.
readout kind: pKi

Worked cases, answers included:
INPUT: Provide only the value of recorded pKi for CCn1c2c(c(=O)n(C)c1=O)C(c1ccc(C)cc1)C1=C(COC1=O)N2 (stereo not drawn)
OUTPUT: < 4.40

INPUT: State, in one line, measured pKi of COc1ccc(C2C3=C(COC3=O)Nc3c2c(=O)[nH]c(=O)n3C)cc1 (stereo not drawn)
OUTPUT: < 4.40

---
INPUT: Please report the measured pKi for COc1ccc(C2C3=C(COC3=O)Nc3c2c(=O)n(C)c(=O)n3C)cc1 (stereo not drawn)
OUTPUT: < 4.40

* * *

Molecular target: Bromodomain testis-specific protein (Homo sapiens, UniProt Q58F21)
Assay: Inhibition of BI-BODIPY binding to BRDT bromodomain 1 (29 to 134 residues) (unknown origin) expressed in Escherichia coli BL21(DE3) by fluorescence anisotropy assay
pKi: −log10 of the molar value.
readout kind: pKi

For orientation, consider the following solved cases.
INPUT: For Cc1ccc(C2C3=C(COC3=O)Nc3c2c(=O)[nH]c(=O)n3C2CC2)cc1 (stereo not drawn) , write its pKi.
OUTPUT: < 4.40

INPUT: Report measured pKi; entry is Cn1c2c(c(=O)[nH]c1=O)C(c1ccccc1)C1=C(COC1=O)N2 (stereo not drawn)
OUTPUT: < 4.40

Alright, here's another compound for you.
INPUT: Identify pKi associated with the compound CCn1c(=O)[nH]c(=O)c2c(-c3ccc(C)cc3)c3c(nc21)COC3=O
OUTPUT: < 4.40
